test system: Plasmodium berghei; assay: Screen against P. berghei liver stage (PbLuc), transformed with Luciferase, at 10uM; assay type: functional, HepG2; conditions: tested at 10 uM
Among all 69,000 compounds or so, about 8,600 (12%) showed an effect of 50% or more. This excerpt belongs to a sample that is enriched for strong results.
Could you label it criterion met if measured INHIBITION is 30% or higher, and criterion not met otherwise?

{"columns": ["compound", "target_or_test_system", "answer_label"],
 "data": [
  ["CN1CCCC1c1nnc2n1CCN(S(=O)(=O)c1ccccc1Cl)CC2 (configuration not stated)", "Plasmodium berghei", "criterion not met"]
]}

-- ask Would you say Cn1ncc2c1NC(=O)CC2c1ccc(Cl)cc1Cl (configuration not stated) shows INHIBITION at minimum 30%?
-- reply criterion met

-- ask Would you say COCC1CN(Cc2ccc(OC)cc2)S(=O)(=O)c2cnccc2O1 (configuration not stated) shows INHIBITION at minimum 30%?
-- reply criterion not met

-- ask Would you say CC(C)n1ncc2c1NC(=O)CC2c1ccccc1Cl (configuration not stated) shows INHIBITION at minimum 30%?
-- reply criterion not met

-- ask Would you say Cn1ncc2c1NC(=O)CC2c1c(Cl)cccc1Cl (configuration not stated) shows INHIBITION at minimum 30%?
-- reply criterion not met

-- ask Would you say CN1CC(=O)N(c2ccccc2)CC12CCN(CCO)C2 (configuration not stated) shows INHIBITION at minimum 30%?
-- reply criterion met

-- ask Would you say Cc1occc1C(=O)N1CCC2(CC1)CC(OCc1ccccn1)CO2 (configuration not stated) shows INHIBITION at minimum 30%?
-- reply criterion met

-- ask Would you say O=c1[nH]c(CN2CCCC(Cn3cncn3)C2)nc2ccccc12 (configuration not stated) shows INHIBITION at minimum 30%?
-- reply criterion not met

-- ask Would you say `COCC(=O)N1CC(c2csc(NC(C)=O)n2)C1` shows INHIBITION at minimum 30%?
-- reply criterion not met

-- ask Would you say CCC1CCCN(Cc2nc3ccccc3c(=O)[nH]2)C1 (configuration not stated) shows INHIBITION at minimum 30%?
-- reply criterion met

-- ask Would you say Cn1ncc2c1NC(=O)CC2c1cc(Cl)ccc1F (configuration not stated) shows INHIBITION at minimum 30%?
-- reply criterion not met

-- ask Would you say Cc1nc(C2CCCN2C(=O)Cc2cccc(F)c2)nc(O)c1C (configuration not stated) shows INHIBITION at minimum 30%?
-- reply criterion not met
